Target: rat albumin (rat, UniProt P02770 25-608)
Sequence (P02770 25-608 limits assumed): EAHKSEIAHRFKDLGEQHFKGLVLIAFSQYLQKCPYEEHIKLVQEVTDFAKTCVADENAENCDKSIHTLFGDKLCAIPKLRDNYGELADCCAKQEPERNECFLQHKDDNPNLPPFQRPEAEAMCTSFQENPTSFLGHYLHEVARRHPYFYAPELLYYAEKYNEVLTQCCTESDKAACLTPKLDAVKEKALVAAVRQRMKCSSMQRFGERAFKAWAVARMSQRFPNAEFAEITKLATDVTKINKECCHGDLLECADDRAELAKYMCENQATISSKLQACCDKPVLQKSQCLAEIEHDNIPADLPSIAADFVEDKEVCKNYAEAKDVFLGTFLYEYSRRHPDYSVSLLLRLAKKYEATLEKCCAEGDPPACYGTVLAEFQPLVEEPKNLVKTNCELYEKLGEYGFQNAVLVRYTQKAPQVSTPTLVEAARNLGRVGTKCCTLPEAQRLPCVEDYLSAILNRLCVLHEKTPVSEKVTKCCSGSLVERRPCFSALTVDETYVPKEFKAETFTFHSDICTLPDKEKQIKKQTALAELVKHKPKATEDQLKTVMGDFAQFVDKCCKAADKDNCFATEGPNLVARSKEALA
Assay: SA08b binding assay: competition with biotinylated SA08b for immobilized albumin
Experimental: Plates were blocked using Blocker Casein (Pierce Chemical, Rockford, Ill.) for 1 hr, at 25° C. […] The amount of HRP bound was measured using ABTS/H₂O₂ substrate and monitoring the change at 405 nm.
Bridges are numbered along the chain shown (N, C = ends). Where no end group is shown, it is not given here. code n = not defined here
measurement-kind: IC50 (nM)
Give bare numbers, in nM.

Known results for binders:
>  <binder>
Ac-QGLIGDICLPRWGCLWGDSVK-{code n} (disulfide 8-14 (inferred); reading uncertain; also: printed as Gln-Gly-Leu-Ile-Gly-Asp-Ile-Cys-Leu-Pro-Arg-Trp-Gly-Cys-Leu-Trp-Gly-Asp-Ser-Val-Lys, synthesized peptide; not biotinylated form of SA08b; also called SA08 peptide) [SA08]

>  <IC50 [nM]>
68

$$$$
>  <binder>
MEDICLPRWGCLWED-{code n} (disulfide 5-11 (inferred); reading uncertain; also: printed as Met-Glu-Asp-Ile-Cys-Leu-Pro-Arg-Trp-Gly-Cys-Leu-Trp-Glu-Asp, synthesized peptide) [SA05]

>  <IC50 [nM]>
161

$$$$
>  <binder>
Ac-MEDICLPRWGCLWED-{code n} (disulfide 5-11 (inferred); reading uncertain; also: printed as Met-Glu-Asp-Ile-Cys-Leu-Pro-Arg-Trp-Gly-Cys-Leu-Trp-Glu-Asp, synthesized peptide) [SA12]

>  <IC50 [nM]>
205

$$$$

Next item in the queue.
Query: IC50; subject: QRLMEDICLPRWGCLWEDDF-{code n} (disulfide 8-14 (inferred); not fully specified; reading uncertain, synthesized peptide; also called Peptide SA06) [SA06]
68
